# TARGET UNDER TEST: T1, Human NPY Y5 receptor (human, UniProt Q15761 1-445)
# T1 construct: also called HUMAN Clone; human Y5
# T1 sequence: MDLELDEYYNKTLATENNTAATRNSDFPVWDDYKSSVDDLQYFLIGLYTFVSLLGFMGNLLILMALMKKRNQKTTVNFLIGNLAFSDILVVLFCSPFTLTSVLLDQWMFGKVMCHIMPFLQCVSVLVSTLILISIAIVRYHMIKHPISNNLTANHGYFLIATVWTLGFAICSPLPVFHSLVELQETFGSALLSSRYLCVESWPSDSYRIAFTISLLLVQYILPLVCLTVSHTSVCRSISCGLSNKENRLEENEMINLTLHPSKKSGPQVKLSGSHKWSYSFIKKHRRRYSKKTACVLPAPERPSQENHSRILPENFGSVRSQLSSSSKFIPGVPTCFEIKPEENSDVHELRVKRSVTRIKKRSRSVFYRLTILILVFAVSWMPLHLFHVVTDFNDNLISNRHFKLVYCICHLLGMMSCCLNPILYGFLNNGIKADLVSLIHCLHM
# TEST DETAILS: competition with [125I]PYY, membranes of stably transfected 293 cells
OBSERVATION TYPE: pKi
One number for each entry, as −log10 of the molar value.

Give the reported value of pKi for this record: APLEPMYPGDYATHEQRAQYETQLRRYINTLTRPRY (ligand, UniProt P06303 30-65, looked up, mature; also called rPP; rat PP) [rat pancreatic polypeptide]
6.54
